- Tested on: T. cruzi CAI/72 in BESM cells, trypomastigote emergence microscopy
- experimental.details: T. cruzi re-emergence after compound removal – imaging, CAI/72 strain, BESM host cells, 20-day treatment, mechanism study for T. cruzi inhibitor project, late-stage follow-up (AID 651877)
- study.conditions: emergence day; at 2.2 µM; stronger effect = higher value
For each record, write down the corresponding day of emergence.
One number for each entry, in days.

# example entries with known answers
C[C@@H]1CN([C@@H](C)CO)C(=O)c2cccc(NC(=O)c3ccncc3)c2O[C@H]1CN(C)Cc1ccc(Cl)cc1; 17
O=C(Cn1ccnc1[N+](=O)[O-])NCc1ccccc1; 6

Then this molecule:
Reported day of emergence, molecule C[C@@H]1CN([C@@H](C)CO)C(=O)c2cccc(NC(=O)c3ccncc3)c2O[C@H]1CN(C)Cc1cccc(Cl)c1 : ____
18
